Record form. Attribute: PBM binding z-score. Fill in for each entry.
Tested on: PXR homodimer (NR concentration 270 nM)
assay_text: PBM binding z-score (relative to random genomic background probes); higher = stronger binding; sequences stand for … in GC…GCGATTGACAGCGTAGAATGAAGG
Answers are plain numbers.

> print(dat)
                          biosequence    value
1  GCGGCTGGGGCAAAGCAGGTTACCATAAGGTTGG   -0.584
2  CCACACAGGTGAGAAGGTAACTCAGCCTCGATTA   0.0622
3  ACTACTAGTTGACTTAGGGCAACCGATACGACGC  -0.0753

Give measured PBM binding z-score for every item shown.
1. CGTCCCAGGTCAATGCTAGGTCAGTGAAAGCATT
2. CCTAGGTGGTCAGGAGGTCACACACCGGATATGA
3. AATACAGGGTCATGGTAGGCCAGAGTACGCACAG

Reply:
1: 0.306; 2: 1.33; 3: 0.859

Give measured PBM binding z-score for every item shown.
1. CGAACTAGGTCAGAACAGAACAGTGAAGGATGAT
2. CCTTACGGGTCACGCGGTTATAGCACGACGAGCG
3. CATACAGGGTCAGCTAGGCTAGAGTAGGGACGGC
4. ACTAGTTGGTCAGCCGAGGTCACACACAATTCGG

Reply:
[0.00344, -0.0866, -0.333, 2.13]

----------
Tested on: PPARg:RXRa IVT, anti-PPARg (NR concentration 270 nM, RXRa partner concentration 90 nM)
assay_text: PBM binding z-score (relative to random genomic background probes); higher = stronger binding; sequences stand for … in GC…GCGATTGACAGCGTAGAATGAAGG
quantity: PBM binding z-score

Field: example entries. Status: answers known.
> print(dat)
                          biosequence  value
1  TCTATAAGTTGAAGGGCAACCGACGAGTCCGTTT  0.839
2  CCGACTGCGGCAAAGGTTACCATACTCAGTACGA  0.732
3  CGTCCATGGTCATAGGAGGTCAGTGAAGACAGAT   2.01

Give measured PBM binding z-score for every item shown.
1. TTATATAGGTAAAAGGTGAAAGTCGGTGTGGTAA
2. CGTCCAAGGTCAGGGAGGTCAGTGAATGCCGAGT

Reply:
6.76
3.53

Give measured PBM binding z-score for every item shown.
1. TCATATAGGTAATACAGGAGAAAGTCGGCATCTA
2. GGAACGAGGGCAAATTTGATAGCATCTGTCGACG
3. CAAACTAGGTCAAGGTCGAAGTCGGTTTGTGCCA
4. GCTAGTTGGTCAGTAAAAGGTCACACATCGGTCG
5. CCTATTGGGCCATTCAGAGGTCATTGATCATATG
6. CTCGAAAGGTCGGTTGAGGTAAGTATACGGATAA
7. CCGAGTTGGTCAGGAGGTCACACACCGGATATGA

Reply:
1. 2.1
2. 2.76
3. 8.63
4. 2.98
5. 2.48
6. 0.306
7. 2.61

Ask: Entry `GCGACTGGGGCAAAGCTGGTTACCATAAGGTTGG` : reported PBM binding z-score = ?
Reply: 3.14

----------
System: PPARg:RXRa IVT, anti-PPARg (NR concentration 270 nM, RXRa partner concentration 90 nM)
assay_text: PBM binding z-score (relative to random genomic background probes); higher = stronger binding; sequences stand for … in GC…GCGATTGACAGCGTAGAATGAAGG
Record form. Attribute: PBM binding z-score. Fill in for each entry.
Numbers only.

> print(dat)
                          biosequence                                    system  value
1  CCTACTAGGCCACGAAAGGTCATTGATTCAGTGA  PPARg:RXRa IVT, anti-PPARg (NR concentration 270 nM, RXRa partner concentration 90 nM)   6.28
2  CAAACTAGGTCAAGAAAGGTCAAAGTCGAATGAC  PPARg:RXRa IVT, anti-PPARg (NR concentration 270 nM, RXRa partner concentration 90 nM)   8.39
3  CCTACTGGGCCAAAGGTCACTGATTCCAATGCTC  PPARg:RXRa IVT, anti-PPARg (NR concentration 270 nM, RXRa partner concentration 90 nM)   7.12
4  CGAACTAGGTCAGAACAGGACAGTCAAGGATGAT  PPARg:RXRa IVT, anti-PPARg (NR concentration 270 nM, RXRa partner concentration 90 nM)   7.46
5  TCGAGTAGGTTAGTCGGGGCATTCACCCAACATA  PPARg:RXRa IVT, anti-PPARg (NR concentration 270 nM, RXRa partner concentration 90 nM)    1.7
6  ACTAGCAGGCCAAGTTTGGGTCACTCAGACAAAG  PPARg:RXRa IVT, anti-PPARg (NR concentration 270 nM, RXRa partner concentration 90 nM)    1.1
7  ATATGTAGGTTACATCCGGGTCATTCATGCTATG  PPARg:RXRa IVT, anti-PPARg (NR concentration 270 nM, RXRa partner concentration 90 nM)   7.53
8  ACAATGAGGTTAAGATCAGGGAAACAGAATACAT  PPARg:RXRa IVT, anti-PPARg (NR concentration 270 nM, RXRa partner concentration 90 nM)   1.78

Give measured PBM binding z-score for every item shown.
1. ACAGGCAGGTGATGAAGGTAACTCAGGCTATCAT
2. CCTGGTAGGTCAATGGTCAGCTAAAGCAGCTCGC
3. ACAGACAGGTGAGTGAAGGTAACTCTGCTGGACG
4. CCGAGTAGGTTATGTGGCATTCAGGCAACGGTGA

Reply:
[0.0841, 5.35, 0.604, 2.2]

----------
Test system: PXR:RXRa (NR concentration 270 nM, RXRa partner concentration 90 nM)
assay_text: PBM binding z-score (relative to random genomic background probes); higher = stronger binding; sequences stand for … in GC…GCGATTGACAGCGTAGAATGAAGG
Record form. Attribute: PBM binding z-score. Fill in for each entry.
Give bare numbers.

> print(dat)
                          biosequence  value
1  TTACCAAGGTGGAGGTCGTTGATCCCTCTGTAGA   1.37
2  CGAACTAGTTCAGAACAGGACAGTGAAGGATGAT  0.137

Give measured PBM binding z-score for every item shown.
1. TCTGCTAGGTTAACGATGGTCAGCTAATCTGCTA
2. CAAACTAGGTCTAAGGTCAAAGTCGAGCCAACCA
3. CGAACGAGGACATGAGTTGATAGCAAATGCCGAT
4. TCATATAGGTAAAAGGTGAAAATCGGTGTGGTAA
5. CGTCCAAGGTCAGCAGGTCAGTGTAAGCGACGTG
6. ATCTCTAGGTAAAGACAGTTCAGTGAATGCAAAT

Reply:
1. -0.232
2. 4.42
3. -0.249
4. 1.97
5. 3.74
6. 1.61

Give measured PBM binding z-score for every item shown.
1. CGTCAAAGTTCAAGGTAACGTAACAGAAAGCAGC
2. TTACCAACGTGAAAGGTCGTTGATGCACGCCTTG
3. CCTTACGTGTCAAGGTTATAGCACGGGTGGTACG
4. TGAATGAGGTTAACGATCAGGGAACGTGGCGTCG
5. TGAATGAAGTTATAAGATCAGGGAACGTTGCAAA
6. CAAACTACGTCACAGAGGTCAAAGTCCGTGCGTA
7. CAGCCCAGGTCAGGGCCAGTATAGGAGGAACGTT
8. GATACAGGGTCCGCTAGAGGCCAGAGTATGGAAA

Reply:
1. 4.2
2. 2.14
3. 0.998
4. 0.809
5. -0.502
6. 5.74
7. 0.95
8. -0.821

Give measured PBM binding z-score for every item shown.
1. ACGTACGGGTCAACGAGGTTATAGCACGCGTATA
2. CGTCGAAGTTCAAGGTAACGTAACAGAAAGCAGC
3. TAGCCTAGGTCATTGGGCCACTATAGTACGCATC
4. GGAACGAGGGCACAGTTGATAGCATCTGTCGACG
5. AGTCAAAGTTCAGGACGAGGTAACTTAAAGCACG

Reply:
1. 5.2
2. 2.28
3. 1.63
4. 0.227
5. 3.24

Give measured PBM binding z-score for every item shown.
1. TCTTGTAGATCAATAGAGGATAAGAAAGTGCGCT
2. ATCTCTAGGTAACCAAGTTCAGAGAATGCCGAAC
3. CTCGAAAGGTCGGTTAAGGTGAGTATACGGATAA
4. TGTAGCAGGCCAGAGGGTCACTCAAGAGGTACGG
5. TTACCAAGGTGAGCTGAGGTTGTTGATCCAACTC
6. GCATATAGGTGATACAAGGTGAAAGTCCGATTGT

Reply:
1. 0.475
2. 2.15
3. 2.61
4. 1.39
5. 2.03
6. 0.71
